# MEASUREMENT_TARGET: T1, human TfR apical domain (human)
# T1 chain: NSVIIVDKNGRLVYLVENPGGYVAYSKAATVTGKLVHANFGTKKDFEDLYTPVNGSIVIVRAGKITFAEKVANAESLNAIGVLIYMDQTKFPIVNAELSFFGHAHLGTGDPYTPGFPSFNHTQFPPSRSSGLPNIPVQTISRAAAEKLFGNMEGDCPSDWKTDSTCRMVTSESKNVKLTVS
# TEST: SPR
# reported pKd; entries follow
FYI, pKd means -log10 of a concentration in mol per litre.

The following binders have reported results that may help.
35.d1.8 (protein) ASTKGPSVFPLAPSSKSTSGGTAALGCLVKDYFPEPVTVSWNSGALTSGVHTFPAVLQSSGLYSLSSVVTVPSSSLGTQTYICNVNHKPSNTKVDKKVEPKSCDKTHTCPPCPAPELLGGPSVFLFPPKPKDTLMISRTPEVTCVVVDVSHEDPEVKFNWYVDGVEVHNAKTKPREEQYNSTYRVVSVLTVLHQDWLNGKEYKCKVSNKALPAPIEKTISKAKGQPREPQVYTLPPSRDELTKNQVSLTCLVKGFYPSDIAVEWESYGNEWSNYKTTPPVLDSDGSFFLYSKLTVTKSEWQQGFVFSCSVMHEALHNHYTQKSLSLSPELQLEESCAEAQDGELDGLWTT = 4.88
35.d1.1 (protein) ASTKGPSVFPLAPSSKSTSGGTAALGCLVKDYFPEPVTVSWNSGALTSGVHTFPAVLQSSGLYSLSSVVTVPSSSLGTQTYICNVNHKPSNTKVDKKVEPKSCDKTHTCPPCPAPELLGGPSVFLFPPKPKDTLMISRTPEVTCVVVDVSHEDPEVKFNWYVDGVEVHNAKTKPREEQYNSTYRVVSVLTVLHQDWLNGKEYKCKVSNKALPAPIEKTISKAKGQPREPQVYTLPPSRDELTKNQVSLTCLVKGFYPSDIAVEWESYGNEWSSYKTTPPVLDSDGSFFLYSKLTVTKSEWQQGFVFSCSVMHEALHNHYTQKSLSLSPELQLEESCAEAQDGELDGLWTT = 5.21
CH3C.1.35 (protein) ASTKGPSVFPLAPSSKSTSGGTAALGCLVKDYFPEPVTVSWNSGALTSGVHTFPAVLQSSGLYSLSSVVTVPSSSLGTQTYICNVNHKPSNTKVDKKVEPKSCDKTHTCPPCPAPELLGGPSVFLFPPKPKDTLMISRTPEVTCVVVDVSHEDPEVKFNWYVDGVEVHNAKTKPREEQYNSTYRVVSVLTVLHQDWLNGKEYKCKVSNKALPAPIEKTISKAKGQPREPQVYTLPPSRDELTKNQVSLTCLVKGFYPSDIAVEWESYGTEWSSYKTTPPVLDSDGSFFLYSKLTVTKSEWQQGFVFSCSVMHEALHNHYTQKSLSLSPELQLEESCAEAQDGELDGLWTT = 6.21
35.d1.7 (protein) ASTKGPSVFPLAPSSKSTSGGTAALGCLVKDYFPEPVTVSWNSGALTSGVHTFPAVLQSSGLYSLSSVVTVPSSSLGTQTYICNVNHKPSNTKVDKKVEPKSCDKTHTCPPCPAPELLGGPSVFLFPPKPKDTLMISRTPEVTCVVVDVSHEDPEVKFNWYVDGVEVHNAKTKPREEQYNSTYRVVSVLTVLHQDWLNGKEYKCKVSNKALPAPIEKTISKAKGQPREPQVYTLPPSRDELTKNQVSLTCLVKGFYPSDIAVEWESYGTEWSSYKTTPPVLDSDGSFFLYSKLTVSKSEWQQGYVFSCSVMHEALHNHYTQKSLSLSPELQLEESCAEAQDGELDGLWTT = 5.52
35.d1.16 (protein) ASTKGPSVFPLAPSSKSTSGGTAALGCLVKDYFPEPVTVSWNSGALTSGVHTFPAVLQSSGLYSLSSVVTVPSSSLGTQTYICNVNHKPSNTKVDKKVEPKSCDKTHTCPPCPAPELLGGPSVFLFPPKPKDTLMISRTPEVTCVVVDVSHEDPEVKFNWYVDGVEVHNAKTKPREEQYNSTYRVVSVLTVLHQDWLNGKEYKCKVSNKALPAPIEKTISKAKGQPREPQVYTLPPSRDELTKNQVSLTCLVKGFYPSDIAVEWESFGNEWSNYKTTPPVLDSDGSFFLYSKLTVSKSEWQQGFVFSCSVMHEALHNHYTQKSLSLSPELQLEESCAEAQDGELDGLWTT = 4.45
35.d1.13 (protein) ASTKGPSVFPLAPSSKSTSGGTAALGCLVKDYFPEPVTVSWNSGALTSGVHTFPAVLQSSGLYSLSSVVTVPSSSLGTQTYICNVNHKPSNTKVDKKVEPKSCDKTHTCPPCPAPELLGGPSVFLFPPKPKDTLMISRTPEVTCVVVDVSHEDPEVKFNWYVDGVEVHNAKTKPREEQYNSTYRVVSVLTVLHQDWLNGKEYKCKVSNKALPAPIEKTISKAKGQPREPQVYTLPPSRDELTKNQVSLTCLVKGFYPSDIAVEWESYGNEWSNYKTTPPVLDSDGSFFLYSKLTVSKSEWQQGFVFSCSVMHEALHNHYTQKSLSLSPELQLEESCAEAQDGELDGLWTT = 4.73

Proceed to the following item.
# input binder: 35.d1.18 (protein) ASTKGPSVFPLAPSSKSTSGGTAALGCLVKDYFPEPVTVSWNSGALTSGVHTFPAVLQSSGLYSLSSVVTVPSSSLGTQTYICNVNHKPSNTKVDKKVEPKSCDKTHTCPPCPAPELLGGPSVFLFPPKPKDTLMISRTPEVTCVVVDVSHEDPEVKFNWYVDGVEVHNAKTKPREEQYNSTYRVVSVLTVLHQDWLNGKEYKCKVSNKALPAPIEKTISKAKGQPREPQVYTLPPSRDELTKNQVSLTCLVKGFYPSDIAVEWESFGTEWSNYKTTPPVLDSDGSFFLYSKLTVSKSEWQQGYVFSCSVMHEALHNHYTQKSLSLSPELQLEESCAEAQDGELDGLWTT ; wanted: its pKd
5.36

Origin of values: patent US20260308269
